Ref: patent US20190248739A1

- test.description: crossover pharmacokinetic study of indoximod free base, salts and SDD in cynomolgus monkeys
- Format: in vivo
- reported.conditions: oral, 275 μmol/kg
- Procedure: The SDD suspension formulations were prepared in 0.5% methylcellulose (Methocel).
Where a name gives a salt, the structure may show the parent alone.
value.kind: Cmax (µM)

compound: Cn1cc(C[C@@H](N)C(=O)O)c2ccccc21 [indoximod HCl]
uom: µM
reported.measurement: 21.3
